# viability, T/C annotations
# System: 922993-354-T-J3-PDC complex spheroids, viability, % test/control
# Test name: Anticancer human tumor 922993-354-T-J3-PDC patient-derived endometrial carcinoma cell line growth inhibition [CLK]
# Condition set: second compound 0.0316 µM; first compound 0.1 µM; stronger effect = lower value
Dear colleague, please return just the value in %, with no unit written.

Some entries whose results are on file:
Query: viability, T/C lookup needed for CC(=O)O[C@H]1C(=O)[C@@]2(C)[C@H]([C@H](OC(=O)c3ccccc3)[C@]3(O)C[C@H](OC(=O)[C@H](O)[C@@H](NC(=O)c4ccccc4)c4ccccc4)C(C)=C1C3(C)C)[C@]1(OC(C)=O)CO[C@@H]1C[C@@H]2O + CN1CCN(c2cc(C(=O)Nc3cc4cc(-c5cnn(C)c5)ccc4cn3)ccn2)CC1 , thanks.
Reply: 126

Query: viability, T/C lookup needed for C=C(F)C(=O)N1CCN(c2nc(OCC3CCCN3C)nc3c2CCN(c2cccc4cccc(Cl)c24)C3)CC1CC#N (stereo not given) + CN1CCN(c2cc(C(=O)Nc3cc4cc(-c5cnn(C)c5)ccc4cn3)ccn2)CC1 , thanks.
Reply: 103

New cases:
Query: viability, T/C lookup needed for CCN1CCN(Cc2ccc(Nc3ncc(F)c(-c4cc(F)c5nc(C)n(C(C)C)c5c4)n3)nc2)CC1 + CN1CCN(c2cc(C(=O)Nc3cc4cc(-c5cnn(C)c5)ccc4cn3)ccn2)CC1 , thanks.
Reply: 83.3

Query: viability, T/C lookup needed for Nc1ccccc1NC(=O)c1ccc(CNC(=O)OCc2cccnc2)cc1 + CN1CCN(c2cc(C(=O)Nc3cc4cc(-c5cnn(C)c5)ccc4cn3)ccn2)CC1 , thanks.
Reply: 114

Query: viability, T/C lookup needed for O=c1[nH]cc(F)c(=O)[nH]1 + CN1CCN(c2cc(C(=O)Nc3cc4cc(-c5cnn(C)c5)ccc4cn3)ccn2)CC1 , thanks.
Reply: 99.5

====

# Test system: 922993-354-T-J3-PDC complex spheroids, viability, % test/control
# Test name: Anticancer human tumor 922993-354-T-J3-PDC cell line growth inhibition [CLK]; active = viability on the fitted dose curve at most 10% of control; inactive = the rest;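 further: spheroids exposed to the agents for 7 days before readout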
# Condition set: second compound 10 µM; first compound 0.316 µM
The reply should be one of these categories: active, inactive

Study these solved cases before continuing.
Query: Test call, this compound: CC1(C)CCC(CN2CCN(c3ccc(C(=O)NS(=O)(=O)c4ccc(NCC5CCOCC5)c([N+](=O)[O-])c4)c(Oc4cnc5[nH]ccc5c4)c3)CC2)=C(c2ccc(Cl)cc2)C1 + CN1CCN(c2cc(C(=O)Nc3cc4cc(-c5cnn(C)c5)ccc4cn3)ccn2)CC1
Reply: active

Query: Test call, this compound: CCc1c2c(nc3ccc(O)cc13)-c1cc3c(c(=O)n1C2)COC(=O)[C@]3(O)CC + CN1CCN(c2cc(C(=O)Nc3cc4cc(-c5cnn(C)c5)ccc4cn3)ccn2)CC1
Reply: active

Query: Test call, this compound: O=C(c1cc(Cc2n[nH]c(=O)c3ccccc23)ccc1F)N1CCN(C(=O)C2CC2)CC1 + CN1CCN(c2cc(C(=O)Nc3cc4cc(-c5cnn(C)c5)ccc4cn3)ccn2)CC1
Reply: active

Query: Test call, this compound: CC1COCCN1c1cc(C2(S(C)(=N)=O)CC2)nc(-c2ccnc3[nH]ccc23)n1 (stereo not given) + CNC(=O)c1ccc(Nc2nc(OC3CCCC3)c3c(-c4ccc5nc(C)oc5c4)c[nH]c3n2)c(OC)c1
Reply: inactive

Consider now this further compound.
Query: Test call, this compound: C=C(F)C(=O)N1CCN(c2nc(OCC3CCCN3C)nc3c2CCN(c2cccc4cccc(Cl)c24)C3)CC1CC#N (stereo not given) + CN1CCN(c2cc(C(=O)Nc3cc4cc(-c5cnn(C)c5)ccc4cn3)ccn2)CC1
Reply: active

====

# Test system: 922993-354-T-J3-PDC complex spheroids, viability, % test/control
# Test name: Anticancer human tumor 922993-354-T-J3-PDC cell line growth inhibition [CLK]; active = viability on the fitted dose curve at most 10% of control; inactive = the rest;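 further: spheroids exposed to the agents for 7 days before readout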
# Condition set: second compound 3.16 µM; first compound 0.0316 µM
The reply should be one of these categories: active, inactive

Study these solved cases before continuing.
Query: Test call, this compound: COc1cccc2c1C(=O)c1c(O)c3c(c(O)c1C2=O)CC(O)(C(=O)CO)CC3OC1CC(N)C(O)C(C)O1 (stereo not drawn) + CN1CCN(c2cc(C(=O)Nc3cc4cc(-c5cnn(C)c5)ccc4cn3)ccn2)CC1
Reply: active

Query: Test call, this compound: COc1ccc([C@@H](O)c2cc(-c3ncnc4cc(N5CCOCC5)ccc34)c(F)cc2Cl)nn1 + CN1CCN(c2cc(C(=O)Nc3cc4cc(-c5cnn(C)c5)ccc4cn3)ccn2)CC1
Reply: active

Consider now this further compound.
Query: Test call, this compound: CCN1CCN(Cc2ccc(Nc3ncc(F)c(-c4cc(F)c5nc(C)n(C(C)C)c5c4)n3)nc2)CC1 + CNC(=O)c1ccc(Nc2nc(OC3CCCC3)c3c(-c4ccc5nc(C)oc5c4)c[nH]c3n2)c(OC)c1
Reply: inactive

====

# Test system: 922993-354-T-J3-PDC complex spheroids, viability, % test/control
# Test name: Anticancer human tumor 922993-354-T-J3-PDC cell line growth inhibition [CLK];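 further: spheroids exposed to the agents for 7 days before readout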
# Condition set: second compound 0.0316 µM; first compound 0.00316 µM; stronger effect = lower value
# viability, T/C annotations
Dear colleague, please return just the value in %, with no unit written.

Query: Could you share what viability, T/C was measured for CCc1c2c(nc3ccc(O)cc13)-c1cc3c(c(=O)n1C2)COC(=O)[C@]3(O)CC + CNC(=O)c1ccc(Nc2nc(OC3CCCC3)c3c(-c4ccc5nc(C)oc5c4)c[nH]c3n2)c(OC)c1 , tested on 922993-354-T-J3-PDC complex spheroids, viability, % test/control?
Reply: 101

Query: Could you share what viability, T/C was measured for COc1c(OCCCN2CCOCC2)ccc2c3n(c(=NC(=O)c4cnc(N)nc4)nc12)CCN3 + CNC(=O)c1ccc(Nc2nc(OC3CCCC3)c3c(-c4ccc5nc(C)oc5c4)c[nH]c3n2)c(OC)c1 , tested on 922993-354-T-J3-PDC complex spheroids, viability, % test/control?
Reply: 92.2

Alright, here's another molecule for you.
Query: Could you share what viability, T/C was measured for COc1c(OCCCN2CCOCC2)ccc2c3n(c(=NC(=O)c4cnc(N)nc4)nc12)CCN3 + CN1CCN(c2cc(C(=O)Nc3cc4cc(-c5cnn(C)c5)ccc4cn3)ccn2)CC1 , tested on 922993-354-T-J3-PDC complex spheroids, viability, % test/control?
Reply: 112

====

# System: 922993-354-T-J3-PDC complex spheroids, viability, % test/control
# Test name: Anticancer human tumor 922993-354-T-J3-PDC cell line growth inhibition [CLK];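 further: spheroids exposed to the agents for 7 days before readout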
# Condition set: second compound 10 µM; first compound 0.03 µM; stronger effect = lower value
Experimental readout: viability, T/C (%)
Dear colleague, please return just the value in %, with no unit written.

Query: Could you share what viability, T/C was measured for C=CC(=O)Nc1cc(Nc2nccc(-c3cn(C)c4ccccc34)n2)c(OC)cc1N(C)CCN(C)C + CNC(=O)c1ccc(Nc2nc(OC3CCCC3)c3c(-c4ccc5nc(C)oc5c4)c[nH]c3n2)c(OC)c1 , tested on 922993-354-T-J3-PDC complex spheroids, viability, % test/control?
Reply: 30.2

Query: Could you share what viability, T/C was measured for NC(=O)C(=Cn1cnc(-c2cc(C(F)(F)F)cc(C(F)(F)F)c2)n1)c1cncnc1 + CN1CCN(c2cc(C(=O)Nc3cc4cc(-c5cnn(C)c5)ccc4cn3)ccn2)CC1 , tested on 922993-354-T-J3-PDC complex spheroids, viability, % test/control?
Reply: 0.16

Query: Could you share what viability, T/C was measured for NC(=O)C(=Cn1cnc(-c2cc(C(F)(F)F)cc(C(F)(F)F)c2)n1)c1cncnc1 + CNC(=O)c1ccc(Nc2nc(OC3CCCC3)c3c(-c4ccc5nc(C)oc5c4)c[nH]c3n2)c(OC)c1 , tested on 922993-354-T-J3-PDC complex spheroids, viability, % test/control?
Reply: 65.3

Query: Could you share what viability, T/C was measured for CC(C)CC(NC(=O)C(Cc1ccccc1)NC(=O)c1cnccn1)B(O)O (stereo unspecified) + CN1CCN(c2cc(C(=O)Nc3cc4cc(-c5cnn(C)c5)ccc4cn3)ccn2)CC1 , tested on 922993-354-T-J3-PDC complex spheroids, viability, % test/control?
Reply: 0.16

Query: Could you share what viability, T/C was measured for C=CC(=O)Nc1cc(Nc2nccc(-c3cn(C)c4ccccc34)n2)c(OC)cc1N(C)CCN(C)C + CN1CCN(c2cc(C(=O)Nc3cc4cc(-c5cnn(C)c5)ccc4cn3)ccn2)CC1 , tested on 922993-354-T-J3-PDC complex spheroids, viability, % test/control?
Reply: 0.16

Alright, here's another molecule for you.
Query: Could you share what viability, T/C was measured for CC(C)CC(NC(=O)C(Cc1ccccc1)NC(=O)c1cnccn1)B(O)O (stereo unspecified) + CNC(=O)c1ccc(Nc2nc(OC3CCCC3)c3c(-c4ccc5nc(C)oc5c4)c[nH]c3n2)c(OC)c1 , tested on 922993-354-T-J3-PDC complex spheroids, viability, % test/control?
Reply: 3.29
